Biological target: Transient receptor potential cation channel subfamily V member 1 (Rattus norvegicus) (UniProt O35433)
Sequence (O35433 whole entry): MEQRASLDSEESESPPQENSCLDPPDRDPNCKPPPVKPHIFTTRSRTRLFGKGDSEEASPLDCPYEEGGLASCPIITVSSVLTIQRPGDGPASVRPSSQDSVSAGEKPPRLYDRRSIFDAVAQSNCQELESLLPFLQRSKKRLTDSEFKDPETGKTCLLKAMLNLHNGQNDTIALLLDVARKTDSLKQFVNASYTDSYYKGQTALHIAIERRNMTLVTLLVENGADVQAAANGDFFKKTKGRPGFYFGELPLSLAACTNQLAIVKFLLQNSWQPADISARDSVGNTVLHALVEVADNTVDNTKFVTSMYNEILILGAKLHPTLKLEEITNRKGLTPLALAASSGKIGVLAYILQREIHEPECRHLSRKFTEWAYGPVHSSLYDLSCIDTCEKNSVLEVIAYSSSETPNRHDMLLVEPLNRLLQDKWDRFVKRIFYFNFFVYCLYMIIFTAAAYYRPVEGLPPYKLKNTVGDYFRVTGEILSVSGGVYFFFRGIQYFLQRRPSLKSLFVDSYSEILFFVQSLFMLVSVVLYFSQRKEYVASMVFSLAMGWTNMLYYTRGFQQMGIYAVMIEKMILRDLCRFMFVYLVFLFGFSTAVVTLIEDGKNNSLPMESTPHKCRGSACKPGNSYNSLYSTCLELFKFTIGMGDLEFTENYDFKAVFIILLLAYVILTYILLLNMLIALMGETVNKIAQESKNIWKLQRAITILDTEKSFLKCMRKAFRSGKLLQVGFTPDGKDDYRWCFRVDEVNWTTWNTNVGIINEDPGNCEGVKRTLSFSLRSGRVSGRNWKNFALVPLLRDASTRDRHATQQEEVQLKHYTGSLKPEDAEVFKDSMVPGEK
Experiment: Blockade of rat recombinant TRPV1 expressed in xenopus oocytes assessed as inhibition of capsaicin-induced whole-cell current at 1 uM at holding potential of -60 mV by electrophysiological assay relative to control
Format: cell-based
Settings: Oocyte
metric: inhibition (%)

- chemical-string: "C[N+](C)(C)CCCC[C@@H]1NC(=O)N([C@@H](Cc2c(Sc3ccccc3[N+](=O)[O-])[nH]c3ccccc23)C(N)=O)C1=O"
  measurement-unit: "%"
  reported: 17.4
- chemical-string: "NC(=O)[C@H](Cc1c(Sc2ccccc2[N+](=O)[O-])[nH]c2ccccc12)NC(=O)[C@H](CCCCN=C(N1CCCC1)N1CCCC1)N=C(N1CCCC1)N1CCCC1"
  measurement-unit: "%"
  reported: 27.3
- chemical-string: "NC(=O)[C@H](Cc1c(Sc2ccccc2[N+](=O)[O-])[nH]c2ccccc12)NC(=O)[C@@H](N)CCCN=C(N)N"
  measurement-unit: "%"
  reported: 18.7
- chemical-string: "NC(=O)[C@H](Cc1c(Sc2ccccc2[N+](=O)[O-])[nH]c2ccccc12)NC(=O)[C@@H](N)CCN=C(N1CCCC1)N1CCCC1"
  measurement-unit: "%"
  reported: 23.5
- chemical-string: "CN(C)C(=NCCCC[C@H](N)C(=O)N[C@@H](Cc1c(Sc2ccccc2[N+](=O)[O-])[nH]c2ccccc12)C(N)=O)N(C)C"
  measurement-unit: "%"
  reported: 21.1

---

Biological target: Transient receptor potential cation channel subfamily V member 1 (Rattus norvegicus)
Experiment: Blockade of rat recombinant TRPV1 expressed in xenopus oocytes assessed as inhibition of capsaicin-induced whole-cell current at 10 uM at holding potential of -60 mV by electrophysiological assay relative to control
Type: cell-based
Settings: Oocyte
metric: inhibition (%)

- chemical-string: "CN(C)C(=NCCCC[C@@H]1NC(=O)N([C@@H](Cc2c(Sc3ncccc3[N+](=O)[O-])[nH]c3ccccc23)C(N)=O)C1=O)N(C)C"
  measurement-unit: "%"
  reported: 40.9

A. CC(=O)N[C@@H](CCCCN=C(N(C)C)N(C)C)C(=O)N[C@@H](Cc1c(Sc2ccccc2[N+](=O)[O-])[nH]c2ccccc12)C(N)=O
B. CC(=O)N[C@@H](CN=C(N1CCCC1)N1CCCC1)C(=O)N[C@@H](Cc1c(Sc2ccccc2[N+](=O)[O-])[nH]c2ccccc12)C(N)=O
When their inhibition values are compared, which is larger, A or B ? Reply with the label of the item you choose.
B

---

Target: Transient receptor potential cation channel subfamily V member 1 (Rattus norvegicus) (UniProt O35433)
Test: Blockade of rat recombinant TRPV1 expressed in xenopus oocytes assessed as inhibition of capsaicin-induced whole-cell current at 10 uM at holding potential of -60 mV by electrophysiological assay relative to control
Type: cell-based
Conditions: Oocyte
metric: inhibition (%)

- chemical-string: "CC(=O)N[C@@H](CCCCN)C(=O)N[C@@H](Cc1c(Sc2ncccc2[N+](=O)[O-])[nH]c2ccccc12)C(N)=O"
  inhibition [%]: 12.7

I. NC(=O)[C@H](Cc1c(Sc2ncccc2[N+](=O)[O-])[nH]c2ccccc12)N1C(=O)N[C@@H](CCCN=C(N)N)C1=O
II. NCC[C@H](N)C(=O)N[C@@H](Cc1c(Sc2ccccc2[N+](=O)[O-])[nH]c2ccccc12)C(N)=O
// which entry reports the smaller inhibition, I or II ? Reply with the label of the item you choose.
II
(II: 20.6%, I: 54.3%)

---

Biological target: UniProt:O35433
Test: Blockade of rat recombinant TRPV1 expressed in xenopus oocytes assessed as inhibition of capsaicin-induced whole-cell current at 10 uM at holding potential of -60 mV by electrophysiological assay relative to control
Type: cell-based
Conditions: Oocyte
metric: inhibition (%)

Before answering, review these 4 worked examples.
- chemical-string: "NC[C@@H]1NC(=O)N([C@@H](Cc2c(Sc3ccccc3[N+](=O)[O-])[nH]c3ccccc23)C(N)=O)C1=O"
  reported: 29.9
- chemical-string: "NC(=O)[C@H](Cc1c(Sc2ccccc2[N+](=O)[O-])[nH]c2ccccc12)NC(=O)[C@@H](N)CCCCN=C(N1CCCC1)N1CCCC1"
  reported: 55.8
- chemical-string: "NC(=O)[C@H](Cc1c(Sc2ccccc2[N+](=O)[O-])[nH]c2ccccc12)N1C(=O)N[C@@H](CCCCN=C(N2CCCC2)N2CCCC2)C1=O"
  reported: 60.4
- chemical-string: "NC(=O)[C@H](Cc1c(Sc2ccccc2[N+](=O)[O-])[nH]c2ccccc12)N1C(=O)N[C@@H](CCN=C(N2CCCC2)N2CCCC2)C1=O"
  reported: 56.3

a. CC(=O)N[C@@H](CCN=C(N1CCCC1)N1CCCC1)C(=O)N[C@@H](Cc1c(Sc2ccccc2[N+](=O)[O-])[nH]c2ccccc12)C(N)=O
b. C[N+](C)(C)CCCC[C@@H]1NC(=O)N([C@@H](Cc2c(Sc3ccccc3[N+](=O)[O-])[nH]c3ccccc23)C(N)=O)C1=O
c. CC(=O)N[C@@H](CCCC[N+](C)(C)C)C(=O)N[C@@H](Cc1c(Sc2ccccc2[N+](=O)[O-])[nH]c2ccccc12)C(N)=O
Rank order required: inhibition, descending. Provide your answer as the labels ordered per the instruction.
b, a, c

---

Molecular target: Glutamate NMDA receptor; GRIN1/GRIN2A (Homo sapiens) (UniProt Q05586+Q12879)
Test: Blockade of human recombinant NR1/NR2A expressed in xenopus oocytes assessed as inhibition of L-glutamate/glycine-induced whole-cell current at 10 uM at holding potential of -60 mV by electrophysiological assay relative to control
Assay type: cell-based
Settings: Oocyte
metric: inhibition (%)

- chemical-string: "C[N+](C)(C)CCCC[C@H](N)C(=O)N[C@@H](Cc1c(Sc2ccccc2[N+](=O)[O-])[nH]c2ccccc12)C(N)=O"
  reported: 5.5
- chemical-string: "NC(=O)[C@H](Cc1c(Sc2ccccc2[N+](=O)[O-])[nH]c2ccccc12)N1C(=O)N[C@@H](CN=C(N2CCCC2)N2CCCC2)C1=O"
  reported: 43.7
- chemical-string: "C[N+](C)(C)CCCC[C@@H]1NC(=O)N([C@@H](Cc2c(Sc3ccccc3[N+](=O)[O-])[nH]c3ccccc23)C(N)=O)C1=O"
  reported: 9.2
- chemical-string: "NC(=O)[C@H](Cc1c(Sc2ccccc2[N+](=O)[O-])[nH]c2ccccc12)N1C(=O)N[C@@H](CCCCN=C(N2CCCC2)N2CCCC2)C1=O"
  reported: 10.7
- chemical-string: "CC(=O)N[C@@H](CCCCN)C(=O)N[C@@H](Cc1c(Sc2ccccc2[N+](=O)[O-])[nH]c2ccccc12)C(N)=O"
  reported: 15.4
- chemical-string: "NC(=O)[C@H](Cc1c(Sc2ccccc2[N+](=O)[O-])[nH]c2ccccc12)NC(=O)[C@H](CCCCN=C(N1CCCC1)N1CCCC1)N=C(N1CCCC1)N1CCCC1"
  reported: 6.8

1. NCCCC[C@H](N)C(=O)N[C@@H](Cc1c(Sc2ccccc2[N+](=O)[O-])[nH]c2ccccc12)C(N)=O
2. C[N+](C)(C)CCCC[C@@H]1NC(=O)N([C@@H](Cc2c(Sc3ncccc3[N+](=O)[O-])[nH]c3ccccc23)C(N)=O)C1=O
When their inhibition values are compared, which is larger, 1 or 2 ? Reply with the label of the item you choose.
2
(2: 20.6%, 1: 13.5%)

---

Biological target: Transient receptor potential cation channel subfamily V member 1 (Rattus norvegicus)
Experiment: Blockade of rat recombinant TRPV1 expressed in xenopus oocytes assessed as inhibition of capsaicin-induced whole-cell current at 10 uM at holding potential of -60 mV by electrophysiological assay relative to control
Type: cell-based
Settings: Oocyte
metric: inhibition (%)

Before answering, review these 9 worked examples.
- chemical-string: "CC(=O)N[C@@H](CCCN=C(N)N)C(=O)N[C@@H](Cc1c(Sc2ncccc2[N+](=O)[O-])[nH]c2ccccc12)C(N)=O"
  inhibition, %: 23.9
- chemical-string: "CC(=O)N[C@@H](CCCCN=C(N1CCCC1)N1CCCC1)C(=O)N[C@@H](Cc1c(Sc2ccccc2[N+](=O)[O-])[nH]c2ccccc12)C(N)=O"
  inhibition, %: 44
- chemical-string: "NC(=O)[C@H](Cc1c(Sc2ncccc2[N+](=O)[O-])[nH]c2ccccc12)N1C(=O)N[C@@H](CCCCN=C(N2CCCC2)N2CCCC2)C1=O"
  inhibition, %: 52.5
- chemical-string: "CC(=O)N[C@@H](CCCCN=C(N(C)C)N(C)C)C(=O)N[C@@H](Cc1c(Sc2ncccc2[N+](=O)[O-])[nH]c2ccccc12)C(N)=O"
  inhibition, %: 12
- chemical-string: "NCC[C@@H]1NC(=O)N([C@@H](Cc2c(Sc3ccccc3[N+](=O)[O-])[nH]c3ccccc23)C(N)=O)C1=O"
  inhibition, %: 11
- chemical-string: "CC(=O)N[C@@H](CN)C(=O)N[C@@H](Cc1c(Sc2ccccc2[N+](=O)[O-])[nH]c2ccccc12)C(N)=O"
  inhibition, %: 14.6
- chemical-string: "CC(=O)N[C@@H](CCCN=C(N)N)C(=O)N[C@@H](Cc1c(Sc2ccccc2[N+](=O)[O-])[nH]c2ccccc12)C(N)=O"
  inhibition, %: 29.2
- chemical-string: "NC[C@H](N)C(=O)N[C@@H](Cc1c(Sc2ccccc2[N+](=O)[O-])[nH]c2ccccc12)C(N)=O"
  inhibition, %: 39.3
- chemical-string: "CC(=O)N[C@@H](CCN)C(=O)N[C@@H](Cc1c(Sc2ccccc2[N+](=O)[O-])[nH]c2ccccc12)C(N)=O"
  inhibition, %: 27.6

A. CN(C)C(=NCCCC[C@H](N)C(=O)N[C@@H](Cc1c(Sc2ccccc2[N+](=O)[O-])[nH]c2ccccc12)C(N)=O)N(C)C
B. NC(=O)[C@H](Cc1c(Sc2ccccc2[N+](=O)[O-])[nH]c2ccccc12)NC(=O)[C@@H](N)CCN=C(N1CCCC1)N1CCCC1
C. NCCCC[C@H](N)C(=O)N[C@@H](Cc1c(Sc2ccccc2[N+](=O)[O-])[nH]c2ccccc12)C(N)=O
D. CN(C)C(=NCCCC[C@@H]1NC(=O)N([C@@H](Cc2c(Sc3ccccc3[N+](=O)[O-])[nH]c3ccccc23)C(N)=O)C1=O)N(C)C
Rank order required: inhibition, descending. Provide your answer as the labels ordered per the instruction.
B, A, C, D

Value source: ChEMBL document CHEMBL1777688
